assay: Half life in Sprague-Dawley rat at 5 mg/kg, po and measured upto 24 hrs by LC-MS/MS analysis; format: ADME, organism-based; settings: in vivo
recordedMetric: half-life (h)

>>> print(df.to_string())
                                     smiles  recordedmetric  outputunit  number
0  CC1(N)CCN(c2ncc(C(=O)Nc3cccnc3)c(N)n2)CC1       half-life           h    4.77

###

test: Cmax in Sprague-Dawley rat at 5 mg/kg, po and measured upto 24 hrs by LC-MS/MS analysis; format: ADME, organism-based; design: dose 5 mg/kg, time < 24 hrs, route po; settings: in vivo
recordedMetric: Cmax (ng/mL)

                                     smiles  number
0  CC1(N)CCN(c2ncc(C(=O)Nc3cccnc3)c(N)n2)CC1     101

###

molecular target: UniProt:Q06124; test: Inhibition of human SHP2 in human NCI-H1975 cells assessed as reduction in ERK phosphorylation by Western blot analysis; assay type: cell-based
Sequence (Q06124 whole entry): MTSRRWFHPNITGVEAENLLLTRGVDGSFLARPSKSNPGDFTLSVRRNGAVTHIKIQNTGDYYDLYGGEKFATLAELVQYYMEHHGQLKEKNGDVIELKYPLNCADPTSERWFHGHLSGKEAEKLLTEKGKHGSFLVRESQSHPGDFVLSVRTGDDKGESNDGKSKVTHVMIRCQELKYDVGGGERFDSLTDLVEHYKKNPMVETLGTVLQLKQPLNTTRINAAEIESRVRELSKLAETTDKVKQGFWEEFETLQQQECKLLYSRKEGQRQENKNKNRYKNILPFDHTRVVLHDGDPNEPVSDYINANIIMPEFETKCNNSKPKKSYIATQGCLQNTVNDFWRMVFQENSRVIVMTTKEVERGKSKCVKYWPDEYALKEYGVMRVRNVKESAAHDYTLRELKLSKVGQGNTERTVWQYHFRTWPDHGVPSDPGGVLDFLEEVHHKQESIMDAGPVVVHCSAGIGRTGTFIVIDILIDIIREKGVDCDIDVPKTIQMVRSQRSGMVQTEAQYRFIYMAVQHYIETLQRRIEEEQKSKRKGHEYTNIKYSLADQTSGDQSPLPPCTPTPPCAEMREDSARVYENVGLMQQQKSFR
pIC50: −log10 of the molar value.
recordedMetric: pIC50

>>> df
                                     smiles   targetofassay  recordedmetric  number
0  CC1(N)CCN(c2ncc(C(=O)Nc3cccnc3)c(N)n2)CC1  UniProt:Q06124           pIC50    6.23

###

assay: Cmax in Sprague-Dawley rat at 5 mg/kg, iv and measured upto 24 hrs by LC-MS/MS analysis; type: ADME, organism-based; set-up: dose 5 mg/kg, time < 24 hrs, route iv; conditions: in vivo
recordedMetric: Cmax (ng/mL)

                                     smiles  number
0  CC1(N)CCN(c2ncc(C(=O)Nc3cccnc3)c(N)n2)CC1     854

###

experiment: Tmax in Sprague-Dawley rat at 5 mg/kg, po and measured upto 24 hrs by LC-MS/MS analysis; type: ADME, organism-based; settings: in vivo
recordedMetric: Tmax

                                     smiles  recordedmetric  result
0  CC1(N)CCN(c2ncc(C(=O)Nc3cccnc3)c(N)n2)CC1            Tmax  2.17 h

Provenance of the data: ChEMBL document CHEMBL5360563
